Source of measurements: ChEMBL document CHEMBL4689842

Test system: Fibroblast
method: Incucyte cell viability with human fibroblast; also: filed as whole numbers so only -1 and 0 and 1 occur
Type: toxicity, cell-based
condition-info: 24 h, 10 µM, compound concentration 10 uM, replicate number 2, timepoint 24 hours
readout-name: Growth Rate
Answers are plain numbers.

molecule	Growth Rate
Cc1c(Nc2ccc(S(=O)(=O)N3CCN(C)CC3)cc2F)nc2ccc(Nc3cnn(C4CC4)c3)cn2c1=O	1
O=C(N1CCS(=O)(=O)CC1)N1C[C@H](c2ccc(OC(F)(F)F)cc2)C[C@H](c2nc(C3CC3)no2)C1 [BAY-386]	0
CCCCN(Cc1ccccc1)C(=O)c1ccc(S(=O)(=O)Nc2ccccc2)cc1	1
COc1cc(C#N)ccc1S(=O)(=O)Nc1ccc2c(c1)cc(C)c(=O)n2C	0

Below: the item to evaluate.
Problem: Can you look up Growth Rate on Fibroblast for `Cc1c(C2=CCN(C(=O)N(C)C(C)C)CC2)nnn1-c1cccnc1F` ?
Solution: 1

* * *

Tested on: Fibroblast
method: Multiplex assay against human fibroblast
Format: toxicity, cell-based
condition-info: 48 h, 10 µM, compound concentration 10 uM, replicate 1
readout-name: Population Fragmented Nuclei (%)
One number for each entry, in %.

compound	target-or-system	measured-number
c1ccc(-c2oc3ncnc(NC[C@@H]4CCCO4)c3c2-c2ccccc2)cc1	Fibroblast	36
Cl.NC[C@@H]1O[C@H](C23CC4CC(CC(C4)C2)C3)Cc2c1ccc(O)c2O	Fibroblast	32
CC(/C=C1\SC(=S)N(CCCC(=O)Nc2ccc(C(=O)O)c(O)c2)C1=O)=C\c1ccccc1	Fibroblast	49

Each compound below has a recorded value; state its Population Fragmented Nuclei (%).
1. Cc1c(P(=S)(c2ccccc2)c2ccccc2)n2ccccc2[n+]1C/C=C/c1ccccc1.[Br-]
2. CCCc1cc(C)[nH]c(=O)c1CNC(=O)c1cc(-c2ccc(N3CCN(C(C)C)CC3)nc2)cc2c1cnn2C(C)C
3. CN1C(=O)[C@@H](NC(=O)c2cc3ccccc3[nH]2)N=C(c2ccccc2)c2ccccc21 [DEVAZEPIDE]
4. CCCCCNC(=N)N/N=C/c1c[nH]c2ccc(OC)cc12.O=C(O)/C=C\C(=O)O [TEGASEROD MALEATE]
5. CN(c1cc(C(F)(F)F)nc(OCCC(=O)O)n1)c1cccc2c1CCC2
6. Cc1ccc(S(=O)(=O)NC2c3ccccc3Oc3ccccc32)cc1

Solution:
36
34
44
48
25
27

* * *

Test system: HEK-293T
method: Multiplex assay against HEK293T
Assay type: toxicity, cell-based
condition-info: human, 48 h, 10 µM, compound concentration 10 uM, replicate 1
Exercise: state measured Population Mitochondria Different-Phenotype (%) for each of the compounds provided.
Answers are plain numbers, in %.

Consider the worked cases shown below.
compound	target-or-system	measured-number
C=CC(=O)Nc1cc(-n2c(=O)ccc3cnc4ccc(-c5ccc(NS(C)(=O)=O)cc5)cc4c32)ccc1C	HEK-293T	29
Cc1c(Nc2ccc(S(=O)(=O)N3CCN(C)CC3)cc2F)nc2ccc(-c3cnn(C4CC4)c3)cn2c1=O	HEK-293T	35
N#Cc1cccc(C(=O)Nc2cc(-c3ccccc3)nn2-c2ccccc2)c1	HEK-293T	78
CCCCN(CC)c1nc(C)nc2c1c(C)cn2-c1c(C)cc(C)cc1C.Cl	HEK-293T	74

Now look at this entry.
Problem: State its Population Mitochondria Different-Phenotype (%) on HEK-293T: C[C@@H](Oc1cc(-n2cnc3ccc(CN4CCN(C)CC4)cc32)sc1C(N)=O)c1ccccc1C(F)(F)F [GSK-461364]
Solution: 100
